Measure: melting point

Request: Look up melting point of C#CCOc1ccc2nc(C(=O)c3ccc(OC)cc3)nc(-c3ccc(C(C)(C)C)cc3)c2c1 [Example 26] and report it.
Response: 150 to 152 °C

###

Measure: melting point

>>> df
                                   compound        reading
0  C#CCOc1ccc2nc(C(=O)c3ccc(OC(C)(C)C)cc3)nc(-c3ccc(C(C)C)cc3)c2c1 [Example 29]  130 to 132 °C
1  C#CCOc1ccc2nc(C(=O)c3ccc(F)cc3)nc(-c3ccc(C(C)(C)C)cc3)c2c1 [Example 10]  105 to 107 °C
2  C#CCOc1ccc2nc(C(=O)c3sccc3C)nc(-c3ccc(C(C)C)cc3)c2c1 [Example 36]  130 to 132 °C

Now consider a different compound.
Request: Look up melting point of C#CCOc1ccc2nc(C(=O)c3ccc(OC)cc3)nc(-c3ccc(C4CC4)cc3)c2c1 [Example 27] and report it.
Response: 147 to 149 °C

###

Measure: melting point

                                   molecule        measure        reading
0  C#CCOc1ccc2nc(C(=O)c3ccc(C#N)cc3)nc(-c3ccc(C(C)C)cc3)c2c1 [Example 17]  melting point  130 to 132 °C
1  C#CCOc1ccc2nc(C(=O)c3cccn3C)nc(-c3ccc(C(C)C)cc3)c2c1 [Example 39]  melting point  126 to 128 °C
2  C#CCOc1ccc2nc(C(=O)c3ccc(OC)c(OCC)c3)nc(-c3ccc(C(C)C)cc3)c2c1 [Example 28]  melting point         148 °C
3  C#CCOc1ccc2nc(C(=O)c3cccc(Cl)c3)nc(-c3ccc(C(C)C)cc3)c2c1 [Example 8]  melting point  128 to 130 °C
4  C#CCOc1ccc2nc(C(=O)c3ccco3)nc(-c3ccc(C(C)C)cc3)c2c1 [Example 32]  melting point  150 to 151 °C

Request: Look up melting point of C#CCOc1ccc2nc(C(=O)c3ccc(Br)cc3)nc(-c3ccc(C(C)C)cc3)c2c1 [Example 13] and report it.
Response: 97 to 100 °C

Request: Look up melting point of C#CCOc1ccc2nc(C(=O)c3ccc(S(C)(=O)=O)cc3)nc(-c3ccc(C(C)C)cc3)c2c1 [Example 19] and report it.
Response: 181 to 184 °C

Request: Look up melting point of C#CCOc1ccc2nc(C(=O)c3ccc(N(C)C)cc3)nc(-c3ccc(C(C)(C)C)cc3)c2c1 [Example 23] and report it.
Response: 150 to 152 °C

###

The molecules listed here are annotated with their melting point.

// worked examples, melting point included
                              record_smiles        reading
0  C#CCOc1ccc2nc(C(=O)c3ccc(CC)cc3)nc(-c3ccc(C(C)C)cc3)c2c1  108 to 111 °C
1  C#CCOc1ccc2nc(C(=O)c3ccc(OCCCC)cc3)nc(-c3ccc(C(C)C)cc3)c2c1    91 to 93 °C

Request: Look up melting point of `C#CCOc1ccc2nc(C(=O)c3ccc(F)cc3)nc(-c3ccc(C(C)C)cc3)c2c1` and report it.
Response: 124 to 126 °C

Request: Look up melting point of `C#CCOc1ccc2nc(C(=O)c3ccc(C)cc3)nc(-c3ccc(C(C)C)cc3)c2c1` and report it.
Response: 130 to 132 °C
